Below is a list of entries, each paired with its recorded pIC50 value.
Target: JAK2 (Homo sapiens)
Construct: endogenous in cells
Sequence (O60674 whole entry): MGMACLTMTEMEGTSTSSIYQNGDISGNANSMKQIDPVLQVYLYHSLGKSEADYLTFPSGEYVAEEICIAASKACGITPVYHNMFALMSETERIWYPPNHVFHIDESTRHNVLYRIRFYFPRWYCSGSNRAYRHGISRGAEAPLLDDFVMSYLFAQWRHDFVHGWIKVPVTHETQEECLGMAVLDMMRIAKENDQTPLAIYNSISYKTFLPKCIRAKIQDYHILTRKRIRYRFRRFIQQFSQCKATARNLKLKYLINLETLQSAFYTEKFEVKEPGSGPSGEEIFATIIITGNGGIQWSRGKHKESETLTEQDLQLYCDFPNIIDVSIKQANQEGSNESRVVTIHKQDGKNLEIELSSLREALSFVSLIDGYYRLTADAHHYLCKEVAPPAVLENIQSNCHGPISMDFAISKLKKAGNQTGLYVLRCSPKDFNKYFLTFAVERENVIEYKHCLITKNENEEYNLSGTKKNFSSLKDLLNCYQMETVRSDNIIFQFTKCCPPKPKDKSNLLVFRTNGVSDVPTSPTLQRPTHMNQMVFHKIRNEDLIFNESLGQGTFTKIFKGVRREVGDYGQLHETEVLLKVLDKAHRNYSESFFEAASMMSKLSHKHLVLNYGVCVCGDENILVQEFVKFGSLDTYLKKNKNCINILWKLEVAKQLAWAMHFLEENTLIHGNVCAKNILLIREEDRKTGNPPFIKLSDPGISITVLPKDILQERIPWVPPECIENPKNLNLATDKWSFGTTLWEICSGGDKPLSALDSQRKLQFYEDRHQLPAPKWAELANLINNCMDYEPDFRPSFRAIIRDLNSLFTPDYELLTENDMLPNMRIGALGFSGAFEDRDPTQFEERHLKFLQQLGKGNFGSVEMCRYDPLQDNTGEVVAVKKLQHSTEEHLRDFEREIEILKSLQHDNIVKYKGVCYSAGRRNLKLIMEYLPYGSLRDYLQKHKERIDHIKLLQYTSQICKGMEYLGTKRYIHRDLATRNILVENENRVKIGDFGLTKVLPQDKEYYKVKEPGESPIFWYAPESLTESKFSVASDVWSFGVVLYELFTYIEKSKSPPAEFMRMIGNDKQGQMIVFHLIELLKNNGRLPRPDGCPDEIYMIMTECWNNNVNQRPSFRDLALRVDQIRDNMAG
Experiment: kinobeads assay (competition with affinity matrix in mixed Molt4/Ramos cell lysate, dot blot detection), JAK2
Conditions: activity level
pIC50: −log10 of the molar value.
measured_property: pIC50

>  <compound>
CC(C)NC(=O)c1ccc(F)c(Nc2ncc(F)c(Nc3ccccc3NS(C)(=O)=O)n2)c1 [Example 31]

>  <test_value>
< 5.00

$$$$
>  <compound>
COc1ccc(Nc2nc(Nc3cc(-n4cnnn4)ccc3F)ncc2Cl)c(NS(C)(=O)=O)c1 [Example 10]

>  <test_value>
6.00 to 7.00

$$$$
>  <compound>
Cc1cccc(Nc2nc(Nc3cc(C(=O)NCCO)ccc3F)ncc2Cl)c1NS(C)(=O)=O [Example 59]

>  <test_value>
< 5.00

$$$$
>  <compound>
CS(=O)(=O)Nc1ccccc1Nc1nc(Nc2cc(-n3cnnn3)ccc2F)ncc1Cl [Example 7]

>  <test_value>
6.00 to 7.00

$$$$
>  <compound>
CNC(=O)c1ccc(F)c(Nc2ncc(F)c(Nc3ccccc3NS(C)(=O)=O)n2)c1 [Example 30]

>  <test_value>
< 5.00

$$$$
>  <compound>
CS(=O)(=O)Nc1ccccc1Nc1nc(Nc2cc(C(N)=O)ccc2F)ncc1Cl [Example 18]

>  <test_value>
< 5.00

$$$$
>  <compound>
CS(=O)(=O)Nc1c(F)cccc1Nc1nc(Nc2cc(-n3cnnn3)ccc2F)ncc1Cl [Example 55]

>  <test_value>
6.00 to 7.00

$$$$
>  <compound>
CCS(=O)(=O)Nc1ccccc1Nc1nc(Nc2cc(C(=O)N3CCCC3)ccc2F)ncc1Cl [Example 41]

>  <test_value>
< 5.00

$$$$
>  <compound>
CCS(=O)(=O)Nc1ccccc1Nc1nc(Nc2cc(C(=O)NC3CC3)ccc2F)ncc1Cl [Example 42]

>  <test_value>
< 5.00

$$$$
>  <compound>
CS(=O)(=O)Nc1c(F)cc(F)cc1Nc1nc(Nc2cc(C(=O)NC3CC3)ccc2F)ncc1Cl [Example 62]

>  <test_value>
5.00 to 6.00

$$$$
>  <compound>
CS(=O)(=O)Nc1ccccc1Nc1nc(Nc2cc(C(=O)N3CCOCC3)ccc2F)ncc1Cl [Example 54]

>  <test_value>
< 5.00

$$$$
>  <compound>
CS(=O)(=O)Nc1ccccc1Nc1nc(Nc2cc(C#N)ccc2F)ncc1Cl [Example 28]

>  <test_value>
< 5.00

$$$$
>  <compound>
Cc1cccc(Nc2nc(Nc3cc(-n4cnnn4)ccc3F)ncc2F)c1NS(C)(=O)=O [Example 4]

>  <test_value>
< 5.00

$$$$
>  <compound>
CCNC(=O)c1ccc(F)c(Nc2ncc(Cl)c(Nc3ccccc3NS(=O)(=O)CC)n2)c1 [Example 39]

>  <test_value>
< 5.00

$$$$
>  <compound>
CS(=O)(=O)Nc1ccccc1Nc1nc(Nc2ccc(N3CCOCC3)cc2F)ncc1F [Example 2]

>  <test_value>
< 5.00

$$$$
>  <compound>
CS(=O)(=O)Nc1ccccc1Nc1nc(Nc2cc(C(=O)NCC#N)ccc2F)ncc1Cl [Example 25]

>  <test_value>
5.00 to 6.00

$$$$
>  <compound>
CS(=O)(=O)Nc1ccccc1Nc1nc(Nc2cc(C(N)=O)ccc2F)ncc1F [Example 29]

>  <test_value>
< 5.00

$$$$
